Ref: patent US20240368106A1

biological target: POLRMT (Homo sapiens (Human), UniProt O00411); assay: homogeneous TR-FRET assay of mitochondrial transcription (inhibition of POLRMT); type: biochemical; conditions: 7.5 nM POLRMT, 15 nM TFB2M, 30 nM TFAM, 0.5 nM DNA template, 500 μM NTPs, 37° C., 60 minutes
Sequence (O00411 42-1230): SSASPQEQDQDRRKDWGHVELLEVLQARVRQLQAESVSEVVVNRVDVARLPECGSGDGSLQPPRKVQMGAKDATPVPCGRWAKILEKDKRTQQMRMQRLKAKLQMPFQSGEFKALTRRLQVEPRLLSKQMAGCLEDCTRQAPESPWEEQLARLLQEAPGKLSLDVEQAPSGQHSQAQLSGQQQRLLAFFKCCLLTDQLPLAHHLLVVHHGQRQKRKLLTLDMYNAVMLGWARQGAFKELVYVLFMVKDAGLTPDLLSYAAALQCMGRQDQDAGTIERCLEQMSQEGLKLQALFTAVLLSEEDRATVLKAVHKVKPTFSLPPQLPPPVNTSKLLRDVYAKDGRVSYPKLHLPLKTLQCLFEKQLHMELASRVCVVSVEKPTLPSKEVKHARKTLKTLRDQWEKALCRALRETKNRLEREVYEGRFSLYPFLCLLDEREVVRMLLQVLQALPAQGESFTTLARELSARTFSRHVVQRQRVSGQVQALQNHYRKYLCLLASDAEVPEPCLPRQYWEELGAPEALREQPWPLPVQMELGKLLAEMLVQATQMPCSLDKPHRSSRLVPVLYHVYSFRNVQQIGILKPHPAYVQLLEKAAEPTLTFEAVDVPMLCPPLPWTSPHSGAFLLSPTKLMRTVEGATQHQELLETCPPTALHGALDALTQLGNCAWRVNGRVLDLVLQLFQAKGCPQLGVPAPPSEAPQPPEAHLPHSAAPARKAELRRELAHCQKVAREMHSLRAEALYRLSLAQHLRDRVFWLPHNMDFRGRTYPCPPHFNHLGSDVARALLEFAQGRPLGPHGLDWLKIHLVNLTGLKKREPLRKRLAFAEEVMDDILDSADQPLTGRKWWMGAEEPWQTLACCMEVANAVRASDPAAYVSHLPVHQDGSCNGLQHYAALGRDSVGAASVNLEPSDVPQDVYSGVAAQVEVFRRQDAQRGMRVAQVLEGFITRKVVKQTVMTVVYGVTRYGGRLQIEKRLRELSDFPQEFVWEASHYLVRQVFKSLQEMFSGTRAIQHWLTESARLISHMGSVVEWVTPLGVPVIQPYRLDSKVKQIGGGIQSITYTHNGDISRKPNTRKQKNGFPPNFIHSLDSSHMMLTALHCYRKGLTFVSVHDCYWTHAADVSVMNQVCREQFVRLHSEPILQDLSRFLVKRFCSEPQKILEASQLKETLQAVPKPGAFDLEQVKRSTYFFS
Class (by IC50) -- bottom bin (below 300 nM), middle bin (300 nM to below 900 nM), top bin (900 nM or more)

**Q:** Could you tell me which band Cc1ccccc1-c1cc(=O)oc2cc(OC(CO)C(=O)N(C)C)ccc12 (single isomer, unassigned) [Example 78] belongs to?
**A:** middle bin

**Q:** Could you tell me which band Cc1cc(OC(C)C)cc2oc(=O)cc(-c3ccccc3)c12 [Example 23] belongs to?
**A:** top bin

**Q:** Could you tell me which band Cc1ccccc1-c1cc(=O)oc2cc(O[C@@H](CO)C(=O)O)ccc12 [Example 103] belongs to?
**A:** top bin

**Q:** Could you tell me which band COCC(Oc1ccc2c(-c3ccccc3Cl)cc(=O)oc2c1)C(=O)N(C)C (single isomer, unassigned) [Example 93] belongs to?
**A:** top bin

**Q:** Could you tell me which band CCCOc1ccc2c(-c3cccnc3C)cc(=O)oc2c1 [Example 53] belongs to?
**A:** middle bin

**Q:** Could you tell me which band Cc1ccccc1-c1cc(=O)oc2cc(O[C@H](C)C(=O)N3CCS(=O)(=O)CC3)ccc12 [Example 111] belongs to?
**A:** bottom bin

**Q:** Could you tell me which band O=C([C@@H](CO)Oc1ccc2c(-c3ccc(F)cc3Cl)cc(=O)oc2c1)N1CCCCC1 [Example 15] belongs to?
**A:** middle bin

**Q:** Could you tell me which band Cc1cc(O)cc2oc(=O)cc(-c3ccccc3)c12 [Example 22] belongs to?
**A:** top bin

**Q:** Could you tell me which band Cc1cccc(C)c1-c1cc(=O)oc2cc(OCC#N)ccc12 [Example 107] belongs to?
**A:** bottom bin

**Q:** Could you tell me which band Cc1ccccc1-c1cc(=O)oc2cc(OC(COC(F)(F)F)C(=O)O)ccc12 (centres unmarked) [Example 106] belongs to?
**A:** bottom bin

**Q:** Could you tell me which band COCC(Oc1ccc2c(-c3ccccc3C)cc(=O)oc2c1)C(=O)O (centres unmarked) [Example 65] belongs to?
**A:** middle bin

**Q:** Could you tell me which band Cc1ccccc1-c1cc(=O)oc2cc(O)cc(C)c12 [Example 37] belongs to?
**A:** top bin

**Q:** Could you tell me which band COCC(Oc1ccc2c(-c3ccccc3C)cc(=O)oc2c1)C(=O)NCC(F)(F)F (single isomer, unassigned) [Example 83] belongs to?
**A:** bottom bin

**Q:** Could you tell me which band COCC(Oc1ccc2c(-c3ccccc3C)cc(=O)oc2c1)C(=O)N1CCC1 (single isomer, unassigned) [Example 89] belongs to?
**A:** bottom bin

**Q:** Could you tell me which band CCCOc1ccc2c(-c3cscc3C)cc(=O)oc2c1 [Example 33] belongs to?
**A:** bottom bin

**Q:** Could you tell me which band CCCOc1ccc2c(-c3cnc(Cl)cc3C)cc(=O)oc2c1 [Example 55] belongs to?
**A:** top bin

**Q:** Could you tell me which band Cc1ccccc1-c1cc(=O)oc2cc(OC3CCOCC3)ccc12 [Example 28] belongs to?
**A:** middle bin

**Q:** Could you tell me which band COCC(Oc1ccc2c(-c3ccc(F)cc3Cl)cc(=O)oc2c1)C(=O)N(C)C (single isomer, unassigned) [Example 85] belongs to?
**A:** bottom bin

**Q:** Could you tell me which band Cc1cccc(C)c1-c1cc(=O)oc2cc(O[C@H](C)C(=O)N3CCS(=O)(=O)CC3)ccc12 [Example 112] belongs to?
**A:** top bin

**Q:** Could you tell me which band COCC(C)Oc1cc(C)c2c(-c3ccccc3C)cc(=O)oc2c1 (single isomer, unassigned) [Example 59] belongs to?
**A:** middle bin

* * *

molecular target: POLRMT (Homo sapiens (Human), UniProt O00411); test: homogeneous TR-FRET assay of mitochondrial transcription (inhibition of POLRMT); type: biochemical; conditions: 7.5 nM POLRMT, 15 nM TFB2M, 30 nM TFAM, 0.5 nM DNA template, 500 μM NTPs, 37° C., 60 minutes
MEASUREMENT LABEL: IC50 (nM)
Give a bare numeral; the unit nM is implied.

**Q:** State the recorded IC50 for this entry: CCCOc1ccc2c(-c3ccncc3C)cc(=O)oc2c1 [Example 54]
**A:** 3000

**Q:** State the recorded IC50 for this entry: CCNC(=O)C(COC)Oc1ccc2c(-c3ccccc3C)cc(=O)oc2c1 (single isomer, unassigned) [Example 81]
**A:** 200

**Q:** State the recorded IC50 for this entry: Cc1cc(OCC(C)C)cc2oc(=O)cc(-c3ccccc3)c12 [Example 24]
**A:** 93000

**Q:** State the recorded IC50 for this entry: Cc1cc(O[C@H](C)C(=O)N2CCCCC2)cc2oc(=O)cc(-c3ccc(F)cc3)c12 [Example 19]
**A:** 500

* * *

target: POLRMT (Homo sapiens (Human), UniProt O00411)
Would you mind telling me the reported IC50 of each entry?
Give a bare numeral; the unit nM is implied.

**Q:** Reported IC50 for POLRMT (Homo sapiens (Human), UniProt O00411), given Cc1ccccc1-c1cc(=O)oc2cc(OC(C)C(F)(F)F)ccc12 (stereo not drawn) [Example 109] ?
**A:** 300

**Q:** Reported IC50 for POLRMT (Homo sapiens (Human), UniProt O00411), given CCOCC(Oc1ccc2c(-c3ccccc3C)cc(=O)oc2c1)C(N)=O (stereo not drawn) [Example 100] ?
**A:** 900

**Q:** Reported IC50 for POLRMT (Homo sapiens (Human), UniProt O00411), given COCCOc1ccc2c(-c3ccccc3C)cc(=O)oc2c1 [Example 09] ?
**A:** 900
